# targetOrSystem: OCT2 (Homo sapiens (Human), UniProt O15244)
# Sequence (O15244 whole entry): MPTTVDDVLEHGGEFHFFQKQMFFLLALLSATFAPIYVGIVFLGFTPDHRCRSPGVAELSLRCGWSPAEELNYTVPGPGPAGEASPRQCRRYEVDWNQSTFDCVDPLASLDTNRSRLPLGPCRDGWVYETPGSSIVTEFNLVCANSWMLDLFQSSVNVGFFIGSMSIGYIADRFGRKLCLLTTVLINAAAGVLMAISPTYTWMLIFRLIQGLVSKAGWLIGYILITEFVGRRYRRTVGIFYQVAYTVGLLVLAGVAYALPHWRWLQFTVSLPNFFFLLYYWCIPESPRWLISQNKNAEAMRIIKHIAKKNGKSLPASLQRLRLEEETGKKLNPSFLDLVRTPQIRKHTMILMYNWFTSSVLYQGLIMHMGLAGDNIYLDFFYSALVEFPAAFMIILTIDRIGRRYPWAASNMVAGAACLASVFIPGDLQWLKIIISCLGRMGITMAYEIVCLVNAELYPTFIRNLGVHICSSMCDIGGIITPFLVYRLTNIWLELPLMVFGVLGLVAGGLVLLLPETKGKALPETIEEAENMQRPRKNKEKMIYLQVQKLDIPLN
# protocolDescription: OCT2 inhibition assay (14C-TEA uptake, OCT2-transfected MDCKII cells)
# Type: cell-based
# Protocol: On assay day, cells were trypsinized and resuspended in Krebs-Henseleit Buffer (KHB), pH 7.4 at […]. Cells were preincubated for 15 min in assay plate before addition of test compound or substrate. […] Samples were then counted on liquid scintillation counter and dpm counts were used to perform the following calculations.
reportedMetric: IC50 (nM)
Numbers only, in nM.

Okay, here is my list. What is IC50 for each of these?
1. O=C(NCc1c(F)cc(F)cc1F)c1cn2c(c(O)c1=O)C(=O)N1[C@H]3CC[C@H](C3)[C@H]1C2 [Compound 55]
2. O=C(NCc1ccc(F)cc1F)c1cn2c(c(O)c1=O)C(=O)N1C(C2)[C@H]2CC[C@@H]1C2 (stereo in doubt) [Compound 48]

476
4910

Consider the compound C[C@H]1C[C@@H]2C[C@H]1O[C@H]1Cn3cc(C(=O)NCc4ccc(F)cc4F)c(=O)c(O)c3C(=O)N21 [Compound 39] and give its measured IC50.
358

----------
# protocolDescription: in vitro
# conditions: human, CC50 nM in MT-4
Threshold-based label: CC50 at 5 days under 10000 nM gives condition met, CC50 at 5 days not under 10000 nM gives condition not met.

compound	qualitativeLabel
O=C(NCc1c(F)cc(F)cc1F)c1cn2c(c(O)c1=O)C(=O)N1[C@H](C2)[C@H]2C[C@@H]1C(F)(F)C2	condition not met
O=C(NCc1c(F)cc(F)cc1F)c1cn2c(c(O)c1=O)C(=O)N1[C@@H]3C[C@@H](C(F)C3F)[C@@H]1C2 (some centres unmarked)	condition not met
O=C(NCc1ccc(F)cc1OC1CC1)c1cn2c(c(O)c1=O)C(=O)N1[C@@H]3CC[C@@H](C3)O[C@H]1C2	condition not met

Is it true that CC50 at 5 days reported for O=C(NCc1ccccc1)c1cn2c(c(O)c1=O)C(=O)N1[C@H]3CC[C@H](C3)[C@@H]1C2 is less than 10000 nM?
condition not met

----------
# targetOrSystem: PXR (Homo sapiens (Human))
# Sequence (O75469 whole entry): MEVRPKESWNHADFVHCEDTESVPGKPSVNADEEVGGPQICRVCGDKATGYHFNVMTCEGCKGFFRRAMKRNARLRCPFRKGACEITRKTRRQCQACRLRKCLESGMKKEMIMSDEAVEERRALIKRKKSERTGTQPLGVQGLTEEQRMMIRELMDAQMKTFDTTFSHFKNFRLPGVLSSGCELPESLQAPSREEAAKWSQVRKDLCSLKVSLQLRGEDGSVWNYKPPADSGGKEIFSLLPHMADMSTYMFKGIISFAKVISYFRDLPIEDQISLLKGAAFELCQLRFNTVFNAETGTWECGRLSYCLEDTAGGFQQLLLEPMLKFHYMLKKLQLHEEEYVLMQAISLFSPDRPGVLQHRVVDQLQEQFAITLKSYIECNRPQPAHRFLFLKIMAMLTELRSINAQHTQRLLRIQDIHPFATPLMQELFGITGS
# protocolDescription: Human PXR activation assay (luciferase reporter gene assay, DPX2 cells)
# Type: cell-based
# conditions: human
Record fulfilled whenever Emax at 24 h, 15 µM is at 4% or higher; record not fulfilled when lower.

Please review the entries below; each comes with its answer.
compound	qualitativeLabel
O=C(NCc1ccc(Cl)cc1F)c1cn2c(c(O)c1=O)C(=O)N1[C@H]3CC[C@H](C3)[C@@H]1C2 [Compound 92]	not fulfilled
O=C(NCc1ccc(F)c(Cl)c1F)c1cn2c(c(O)c1=O)C(=O)N1[C@H]3CC[C@H](C3)[C@@H]1C2 [Compound 69]	fulfilled
O=C(NCc1c(F)cc(F)cc1F)c1cn2c(c(O)c1=O)C(=O)N1[C@H]3CC(F)C(C3)[C@@H]1C2 (stereo in doubt) [Compound 56]	not fulfilled

Can C[C@H]1C[C@@H]2C[C@H]1N1C(=O)c3c(O)c(=O)c(C(=O)NCc4c(F)cc(F)cc4F)cn3C[C@@H]21 [Compound 99] be said to have Emax at 24 h, 15 µM at or above 4%?
fulfilled

Can C[C@@H]1C[C@H]2C[C@@H]1[C@@H]1Cn3cc(C(=O)NCc4c(F)cc(F)cc4F)c(=O)c(O)c3C(=O)N21 [Compound 84] be said to have Emax at 24 h, 15 µM at or above 4%?
fulfilled
